# experimental_details: qHTS Assay for Rab9 Promoter Activators: Hit Validation Using Renilla Luciferase Read-Out for Rab9
# stated_conditions: Huh7 Rab9 promoter Renilla luciferase reporter, 24 h; series mostly up to 76.9 µM
Inconclusive results are not listed. Calls of active or inactive are those of the source. Calls come from the whole dose curve; as a rule, active = well fitted activation curve with a large enough effect; inconclusive = small, poorly fitted or top-dose-only effect; inactive = no such curve, though single readings can be large or run the other way.
Your response should consist of one outcome taken from active, inactive

Examples with answers:
[
  {
    "compound": "COc1ccc(S(=O)(=O)NC(C(=O)NCCc2ccccn2)C(C)C)cc1 (stereo unspecified)",
    "assigned_class": "inactive"
  },
  {
    "compound": "C=CCn1c(C)nnc1SCC(=O)Nc1nccs1",
    "assigned_class": "inactive"
  },
  {
    "compound": "COc1ccc(C(c2nnnn2CCc2ccccc2)N2CCN(C3CCCC3)CC2)cc1 (stereo unspecified)",
    "assigned_class": "active"
  },
  {
    "compound": "CC1(C)CC(=O)c2c(O)c(-c3ccccc3)c(=O)n(-c3ccccc3)c2C1",
    "assigned_class": "inactive"
  },
  {
    "compound": "Cc1cccc(C)c1NC(=O)Nc1cccs1",
    "assigned_class": "inactive"
  },
  {
    "compound": "CCOc1cc(C2C(C#N)=C(N)Oc3n[nH]c(C)c32)ccc1OCCN1CCOCC1 (stereo unspecified)",
    "assigned_class": "inactive"
  },
  {
    "compound": "Cc1nnc2n(c1=O)N=C(c1ccc(Cl)cc1)CS2",
    "assigned_class": "inactive"
  },
  {
    "compound": "CC(Sc1ncnc2c1cnn2-c1ccccc1)C(=O)Nc1ccc(N2CCOCC2)cc1 (stereo unspecified)",
    "assigned_class": "inactive"
  }
]

Exercise: Fill in: this test's call for COC(=O)CSc1nc2cc3c(cc2cc1C#N)OCO3 is ___
Key: inactive

Exercise: Try this compound next: CCC(=O)Nc1cc(-c2cc3ccccc3oc2=O)ccc1OC
Key: inactive

Exercise: What would you report for CCCCCCC(=O)Nc1ccc(C(=O)N/N=C/c2cccnc2)cc1 ?
Key: inactive
